assayed_target: Prostaglandin G/H synthase 2 (Homo sapiens, UniProt P35354)
Sequence (P35354 whole entry): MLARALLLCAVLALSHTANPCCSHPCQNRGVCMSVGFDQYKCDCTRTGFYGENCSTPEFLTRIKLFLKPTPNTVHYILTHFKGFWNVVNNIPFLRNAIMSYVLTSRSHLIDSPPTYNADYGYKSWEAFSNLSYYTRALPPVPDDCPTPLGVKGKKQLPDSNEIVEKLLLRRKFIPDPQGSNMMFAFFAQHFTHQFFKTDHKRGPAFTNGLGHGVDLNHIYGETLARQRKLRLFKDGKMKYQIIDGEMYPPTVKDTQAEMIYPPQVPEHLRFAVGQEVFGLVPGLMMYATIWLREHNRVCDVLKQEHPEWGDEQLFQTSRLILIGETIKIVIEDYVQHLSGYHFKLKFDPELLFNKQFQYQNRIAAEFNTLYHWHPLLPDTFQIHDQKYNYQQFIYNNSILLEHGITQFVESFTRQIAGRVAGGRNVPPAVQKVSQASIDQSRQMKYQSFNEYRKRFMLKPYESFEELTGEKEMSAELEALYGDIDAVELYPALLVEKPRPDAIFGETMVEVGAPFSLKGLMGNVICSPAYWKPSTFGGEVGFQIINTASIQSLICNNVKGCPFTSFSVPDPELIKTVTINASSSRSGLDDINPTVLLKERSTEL
experiment_notes: Inhibition of human recombinant COX-2 using arachidonic acid as substrate preincubated for 5 mins followed by substrate addition measured after 5 mins by HPLC analysis
pIC50: −log10 of the molar value.
endpoint_label: pIC50

Q: For `C=C(C)[C@@H]1CC[C@]2(CO)CC[C@]3(C)[C@H](CC[C@@H]4[C@@]5(C)CC[C@H](OC(C)=O)[C@](C)(C(=O)O)[C@@H]5CC[C@]43C)[C@@H]12` , what is its reported pIC50?
Ans: < 5.00

Q: Would you kindly share the measured pIC50 for `CC(=O)O[C@@H]1CC[C@]2(C)C3=C(CC[C@H]2C1(C)C)[C@@]1(C)CC[C@@H]([C@H](CCC=C(C)C)C(=O)O)[C@]1(C)CC3` ?
Ans: < 5.00

Q: Endpoint output: pIC50 of `CC(C)=CCC[C@H](C(=O)O)[C@H]1CC[C@]2(C)C3=C(CC[C@@]12C)[C@@]1(C)CCC(=O)C(C)(C)[C@H]1CC3` . Value?
Ans: < 5.00
